meta.source: patent US20230212289A1

# target-under-test: CD3 (antigen of the binding affinity table of Example 1) (UniProt P07766)
# test-summary: kinetic fit with two-state parameters; method not given
Recorded measurements of kd2, one per entry
Write down the numeric answer in s⁻¹ and omit the unit.

Record excerpt, results attached:
1. H4L4 (antibody, V domains shown) VH: QVQLQQSGAEVKKPGASVKMSCKASGYTFTRYTMHWVRQAPGQGLEWIGYINPSRGYTNYNQKFKDRVTLTTDTSISTAYMELSRLRSDDTAVYYCARYYDDHYSLDYWGQGTTLTVSS VL: DIQLTQSPSSLSASVGDRVTITCSASSSVSYMNWYQQKPGKAPKLLIYDTSKLASGVPSRFSGSGSGTDFTLTISSMQPEDFATYYCQQWSSNPFTFGSGTKLEINR
0.0023
2. H4L5 (antibody, V domains shown) VH: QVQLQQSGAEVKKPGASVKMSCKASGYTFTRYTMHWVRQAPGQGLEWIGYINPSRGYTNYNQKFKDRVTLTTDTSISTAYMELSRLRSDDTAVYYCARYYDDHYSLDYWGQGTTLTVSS VL: DIQMTQSPSSLSASVGDRVTITCSASSSVSYMNWYQQKPGKAPKRWIYDTSKLASGVPSRFSGSGSGTDFTLTISSLQPEDFATYYCQQWSSNPFTFGSGTKLEINR
0.000744
3. H3L3 (antibody, V domains shown) VH: QVQLVQSGAEVKKPGASVKMSCKASGYTFTRYTMHWVRQAPGQGLEWIGYINPSRGYTNYNQKFKDRATMTTDKSISTAYMELSRLRSDDTAVYYCARYYDDHYSLDYWGQGTTLTVSS VL: DIQLTQSPSSLSASVGDRVTITCSASSSVSYMNWYQQKPGKAPKLLIYDTSKLASGVPSRFSGSGSGTDYTLTISSLQPEDFATYYCQQWSSNPFTFGSGTKLEINR
0.000815

Entry H3L1 (antibody, V domains shown) VH: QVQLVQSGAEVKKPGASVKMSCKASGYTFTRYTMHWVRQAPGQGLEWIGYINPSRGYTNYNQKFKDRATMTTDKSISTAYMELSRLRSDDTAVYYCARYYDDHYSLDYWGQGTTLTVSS VL: DIQMTQSPSSLSASVGDRVTMTCSASSSVSYMNWYQQKPGKAPKRLIYDTSKLASGVPSRFSGSGSGTDFTLTISSLQPEDFATYYCQQWSSNPFTFGSGTKLEINR needs its kd2 filled in; supply it.
0.000831

Entry H3L6 (antibody, V domains shown) VH: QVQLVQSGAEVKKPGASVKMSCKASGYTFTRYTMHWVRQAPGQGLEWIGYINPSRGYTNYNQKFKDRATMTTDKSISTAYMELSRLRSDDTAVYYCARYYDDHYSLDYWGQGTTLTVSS VL: DIQMTQSPSSLSASVGDRVTITCSASSSVSYMNWYQQKPGKAPKLWIYDTSKLASGVPSRFSGSGSGTDYTLTISSLQPEDFATYYCQQWSSNPFTFGSGTKLEINR needs its kd2 filled in; supply it.
0.00243
